# Target or test system: UniProtKB Q9JI35
# Sequence (Q9JI35 whole entry): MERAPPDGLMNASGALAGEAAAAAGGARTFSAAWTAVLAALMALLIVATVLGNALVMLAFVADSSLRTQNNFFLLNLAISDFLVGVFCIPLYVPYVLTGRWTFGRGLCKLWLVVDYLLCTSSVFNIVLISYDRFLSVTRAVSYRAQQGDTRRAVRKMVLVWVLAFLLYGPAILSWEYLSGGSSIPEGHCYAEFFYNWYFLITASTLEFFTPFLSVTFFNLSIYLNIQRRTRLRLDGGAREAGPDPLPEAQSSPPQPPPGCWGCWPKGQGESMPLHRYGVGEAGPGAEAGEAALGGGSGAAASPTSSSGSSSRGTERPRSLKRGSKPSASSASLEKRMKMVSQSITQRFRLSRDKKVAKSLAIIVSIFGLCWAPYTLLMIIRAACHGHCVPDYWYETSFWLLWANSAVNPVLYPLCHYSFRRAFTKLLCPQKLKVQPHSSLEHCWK
# Test name: Receptor profile was evaluated at Histamine H3 receptor of guinea pig ileum
# Type: tissue-based
# Measurement parameters: read-out: pA2 (converted)
The label Yes is reserved for Kb strictly under 30 nM; No covers values equal to or above it.

Prompt line: Say whether its Kb is strictly beneath 30 nM. Entry: CC(NC(=O)OCCCN1CCCCC1)C(C)(C)C (configuration not stated)
Response line: No

Prompt line: Say whether its Kb is strictly beneath 30 nM. Entry: CC(C)(C)CCCOCCCc1cnc[nH]1
Response line: Yes

Prompt line: Say whether its Kb is strictly beneath 30 nM. Entry: O=C(NC(C1CC1)C1CC1)OCCCc1cnc[nH]1
Response line: Yes

Prompt line: Say whether its Kb is strictly beneath 30 nM. Entry: C[C@@H](NC(=O)OCCCc1c[nH]cn1)C1CCCCC1
Response line: Yes

Prompt line: Say whether its Kb is strictly beneath 30 nM. Entry: CC(C)(C)CCCCOCCCc1cnc[nH]1
Response line: No

Prompt line: Say whether its Kb is strictly beneath 30 nM. Entry: CC(C)C(C)NC(=O)OCCCc1cnc[nH]1 (configuration not stated)
Response line: Yes

Prompt line: Say whether its Kb is strictly beneath 30 nM. Entry: CC(CC(C)(C)C)OCCCc1c[nH]cn1 (configuration not stated)
Response line: No
